Tested on: NCI-H1975
Test: relative viability (nuclei count vs DMSO), 5 days (fraction); higher = more cells survive
Details: first compound 0.1 µM
measured_parameter: relative viability
API doc: respond with a numeric literal and nothing else, no unit.

Consider the reported relative viability for these compounds:
| compound | system_tested | relative viability |
| --- | --- | --- |
| CCN(CC)CCCCNc1ncc2cc(-c3cc(OC)cc(OC)c3)c(NC(=O)NC(C)(C)C)nc2n1 + Nc1ncn([C@H]2C[C@H](O)[C@@H](CO)O2)c(=O)n1 [Decitabine] (partner 2 µM) | NCI-H1975 | 0.381 |
| CCN(CC)CCCCNc1ncc2cc(-c3cc(OC)cc(OC)c3)c(NC(=O)NC(C)(C)C)nc2n1 + C[C@]1(O)C[C@@H](c2nc(-c3ccc4ccc(-c5ccccc5)nc4c3)c3c(N)nccn32)C1 [Linsitinib] (partner 1 µM) | NCI-H1975 | 1.11 |
| CCN(CC)CCCCNc1ncc2cc(-c3cc(OC)cc(OC)c3)c(NC(=O)NC(C)(C)C)nc2n1 + NC(=O)Nc1cc(-c2cccc(F)c2)sc1C(=O)N[C@H]1CCCNC1 [AZD7762] (partner 0.2 µM) | NCI-H1975 | 0.776 |
| O=c1cc(N2CCOCC2)oc2c(-c3cccc4c3sc3ccccc34)cccc12 + Cc1nc(Nc2ncc(C(=O)Nc3c(C)cccc3Cl)s2)cc(N2CCN(CCO)CC2)n1 [Dasatinib] (partner 0.075 µM) | NCI-H1975 | 0.333 |
| CCN(CC)CCCCNc1ncc2cc(-c3cc(OC)cc(OC)c3)c(NC(=O)NC(C)(C)C)nc2n1 + Nc1nc2[nH]cc(CCc3ccc(C(=O)N[C@@H](CCC(=O)O)C(=O)O)cc3)c2c(=O)[nH]1 [Pemetrexed] (partner 0.2 µM) | NCI-H1975 | 0.318 |

input: Fill in reported relative viability for this entry: O=c1cc(N2CCOCC2)oc2c(-c3cccc4c3sc3ccccc34)cccc12 + O=C(CCCCCCC(=O)Nc1ccccc1)NO [Vorinostat] (partner 1 µM)
output: 0.733

input: Return reported relative viability. Input compound: CCN(CC)CCCCNc1ncc2cc(-c3cc(OC)cc(OC)c3)c(NC(=O)NC(C)(C)C)nc2n1 + CC(C)C[C@H](NC(=O)[C@H](Cc1ccccc1)NC(=O)c1cnccn1)B(O)O [Bortezomib] (partner 0.002 µM)
output: 0.394

input: Supply relative viability value. Item: O=c1cc(N2CCOCC2)oc2c(-c3cccc4c3sc3ccccc34)cccc12 + CCNC(=O)c1noc(-c2cc(C(C)C)c(O)cc2O)c1-c1ccc(CN2CCOCC2)cc1 [Luminespib] (partner 0.01 µM)
output: 0.202

====

# Lookup of reported relative viability keyed by entry
Test system: H3255
Assay: relative viability (nuclei count vs DMSO), 5 days (fraction); higher = more cells survive
Conditions: first compound 0.03162 µM
Please reply with the value in numeric form only.

Recorded relative viability, per entry:
| molecule | system_tested | relative viability |
| --- | --- | --- |
| CCN(CC)CCCCNc1ncc2cc(-c3cc(OC)cc(OC)c3)c(NC(=O)NC(C)(C)C)nc2n1 + CC1(C)CCC(c2ccc(Cl)cc2)=C(CN2CCN(c3ccc(C(=O)NS(=O)(=O)c4ccc(N[C@H](CCN5CCOCC5)CSc5ccccc5)c(S(=O)(=O)C(F)(F)F)c4)cc3)CC2)C1 [Navitoclax] (partner 0.5 µM) | H3255 | 0.413 |
| O=c1cc(N2CCOCC2)oc2c(-c3cccc4c3sc3ccccc34)cccc12 + CC1(C)CCC(c2ccc(Cl)cc2)=C(CN2CCN(c3ccc(C(=O)NS(=O)(=O)c4ccc(N[C@H](CCN5CCOCC5)CSc5ccccc5)c(S(=O)(=O)C(F)(F)F)c4)cc3)CC2)C1 [Navitoclax] (partner 0.5 µM) | H3255 | 0.5 |
| O=c1cc(N2CCOCC2)oc2c(-c3cccc4c3sc3ccccc34)cccc12 + CS(=O)(=O)N1CCN(Cc2cc3nc(-c4cccc5[nH]ncc45)nc(N4CCOCC4)c3s2)CC1 [Pictilisib] (partner 1 µM) | H3255 | 0.513 |

Here is another molecule to look at.
input: Answer with reported relative viability of O=c1cc(N2CCOCC2)oc2c(-c3cccc4c3sc3ccccc34)cccc12 + O=C(c1cc(Cc2n[nH]c(=O)c3ccccc23)ccc1F)N1CCN(C(=O)C2CC2)CC1 [Olaparib] (partner 8 µM)
output: 0.517

The values you see were collected from the supplement of paper PMC10307832.
